All values here come from the supplement of paper PMC6555819.

Here, each record is paired with measured PBM binding z-score data.
Test system: PPARg:RXRa DBDmut IVT, anti-RXR (DBD mutation: RXRa K156A/R161A, NR concentration 270 nM, RXRa partner concentration 90 nM)
run.description: PBM binding z-score (relative to random genomic background probes); higher = stronger binding; sequences stand for … in GC…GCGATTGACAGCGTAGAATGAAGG

sequence.data	PBM binding z-score
AATACGGGGTCACTAGGCCAGAGTAGGTACGAAT	5.43
CCTACTGGGCCTAAGGTCATTGATTCCAATGCTC	1.25
CGAACTAGGTCTAAGGACAGTGAAAGGCGACGTA	2.2
CAAACAAGGTCACAGAGGTCAAAGTCCGTGCGTA	6.04
CGTCAAAGTTCAAGGTCACGTAACAGAAAGCAGC	2.03

Query: Quick check: PBM binding z-score of CGAACAAGGTCATCCAGGACAGTGAATACATTGA ?
Result: 4.74

Query: Would you kindly share the measured PBM binding z-score for CCTTACGGGTCACTCCAGGTTATATCATCGGAGT ?
Result: 2.96

Query: Look up PBM binding z-score for this sequence: GCTGCTAGGTCAACTGATGGCCAGCTAAAGCTCG
Result: 4.28

Query: Could you tell me which PBM binding z-score is on file for ACTTACGGCTCAACGAGGTTATAGCACGCGTATA ?
Result: -0.0346

Query: Name the recorded PBM binding z-score for TAGCCGAGGTCATTCAGGGGCCAGTATAGAAAGC .
Result: 1.75

Query: Requested field: PBM binding z-score. Item: ATCGAAAGGTCGAAGGTGAGCATACCCACCCGAA
Result: 0.147

Query: Fill in the blank: the reported PBM binding z-score of TCGTGTAGGTTACGGGGGCATTCAGGGATGAAGA is ____.
Result: 5.22

Query: Which PBM binding z-score reading was recorded for the sequence ATATGTAGGTTAGCTGAGGTCATTCAGACTAGGC ?
Result: 6.93

Query: Could you share which PBM binding z-score value was measured for AGAATGAGGTCATACGTAGATCAGGGAAGAAAGT ?
Result: 6.81

Query: Request the reported PBM binding z-score associated with CAAACAAGGTCAAAGGTCAAAGTCGAGCCAACCA
Result: 6.43

Query: For TCTAGTCGGTCAAAGGTCACACACTCGAAATGCG , what is its reported PBM binding z-score?
Result: 5.17

Query: Item ATCGAAAGGTCGACCAGGTGAGTATACACCGTTT has what recorded PBM binding z-score?
Result: 0.539

====

Tested on: PPARg:RXRa 30nM:10nM, anti-RXR (NR concentration 30 nM, RXRa partner concentration 10 nM)
run.description: PBM binding z-score (relative to random genomic background probes); higher = stronger binding; sequences stand for … in GC…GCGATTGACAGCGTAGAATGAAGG
Would you please tag the item True when its PBM binding z-score is 2 or above, and False when it is below?

Known results for sequences:
sequence.data	discrete.label
TATTCAGGGTCAAAGGCCAGAGTACGAATGTCGA	True
AGAATGAGGTCATTAAGATCAGGGAATTGCGGTC	True
GATACAGGGTCGGCTAGAGGCCAGAGTATGGAAA	False

Query: Determine whether measured PBM binding z-score meets or exceeds 2 for TTACCAAGGTGAAAGGTCGTTGCTGCACGCCTTG
Result: True

Query: Does the reported PBM binding z-score for CAAACAAGGTCAAAGGTCAAAGTCGAGCCAACCA fall at or above the 2 mark?
Result: True

Query: Reported PBM binding z-score reaches at least 2 for TCTCGGAGGACACAAAGGTCAGAGCTTTCCAGAG ?
Result: True

Query: Assess whether reported PBM binding z-score for TTACCAAGGTGAACGGTCGTTGATGCACGCCTTG sits at 2 or higher.
Result: False

Query: Could you tell me if the measured PBM binding z-score of TCTAGTGGGTCAAAGGTCACACACTCGAAATGCG reaches 2 or more?
Result: True
